# target_system: Recombinant BTK^WT kinase (Homo sapiens)
# run_description: BTK WT binding affinity (LanthaScreen TR-FRET)
# assay_setup: Kinase Tracer 236, 5 h incubation
experimental_endpoint: IC50

Please review the entries below; each comes with its answer.
>>> print(df.to_string())
                                   molecule                             target_system  experimental_endpoint   readout_value
0  COc1ccc(F)cc1C(=O)NCc1ccc(-c2nn(C(c3ccccc3)C(F)(F)F)c(N)c2C(N)=O)cc1 (stereo not drawn)  Recombinant BTK^WT kinase (Homo sapiens)                   IC50    10 to 100 nM
1  COc1ccccc1C(=O)NCc1ccc(-c2nn(C3CCCOC3)c(N)c2C(N)=O)cc1F (stereo not drawn)  Recombinant BTK^WT kinase (Homo sapiens)                   IC50         < 10 nM
2  COc1ccc(F)cc1C(=O)NCc1ccc(-c2nn(C3CCCC3)c(N)c2C(N)=O)c(F)c1  Recombinant BTK^WT kinase (Homo sapiens)                   IC50         < 10 nM
3  COc1ccc(F)cc1C(=O)NCc1ccc(-c2nn(C3CN(C(C)C)CC3(F)F)c(N)c2C(N)=O)cc1 (stereo not drawn)  Recombinant BTK^WT kinase (Homo sapiens)                   IC50         < 10 nM
4  COc1ccccc1C(=O)NCc1ccc(-c2nn(-c3nc(C)cs3)c(N)c2C(N)=O)cc1  Recombinant BTK^WT kinase (Homo sapiens)                   IC50  100 to 1000 nM

## Input Please give the measured IC50 for this molecule: COc1ccccc1C(=O)NCc1ccc(-c2nn(C3CNCC3(F)F)c(N)c2C(N)=O)cc1F (stereo not drawn)
## Output 10 to 100 nM

## Input Please give the measured IC50 for this molecule: COc1ccc(F)cc1C(=O)NCc1ccc(-c2nn(C(C3CC3)C(F)(F)F)c(N)c2C(N)=O)cc1 (stereo not drawn)
## Output < 10 nM

## Input Please give the measured IC50 for this molecule: COc1ccccc1C(=O)NCc1cc(F)c(-c2nn(C3CCCC3)c(N)c2C(N)=O)c(F)c1
## Output < 10 nM

## Input Please give the measured IC50 for this molecule: COc1ccccc1C(=O)NCc1ccc(-c2nn([C@H]3CC[C@@H](O)C3)c(N)c2C(N)=O)cc1 (relative stereo)
## Output < 10 nM

----------
Documented pIC50 across a set of molecules
# target_system: Recombinant EGFR (Homo sapiens, UniProt P00533)
# Sequence (P00533 25-1210): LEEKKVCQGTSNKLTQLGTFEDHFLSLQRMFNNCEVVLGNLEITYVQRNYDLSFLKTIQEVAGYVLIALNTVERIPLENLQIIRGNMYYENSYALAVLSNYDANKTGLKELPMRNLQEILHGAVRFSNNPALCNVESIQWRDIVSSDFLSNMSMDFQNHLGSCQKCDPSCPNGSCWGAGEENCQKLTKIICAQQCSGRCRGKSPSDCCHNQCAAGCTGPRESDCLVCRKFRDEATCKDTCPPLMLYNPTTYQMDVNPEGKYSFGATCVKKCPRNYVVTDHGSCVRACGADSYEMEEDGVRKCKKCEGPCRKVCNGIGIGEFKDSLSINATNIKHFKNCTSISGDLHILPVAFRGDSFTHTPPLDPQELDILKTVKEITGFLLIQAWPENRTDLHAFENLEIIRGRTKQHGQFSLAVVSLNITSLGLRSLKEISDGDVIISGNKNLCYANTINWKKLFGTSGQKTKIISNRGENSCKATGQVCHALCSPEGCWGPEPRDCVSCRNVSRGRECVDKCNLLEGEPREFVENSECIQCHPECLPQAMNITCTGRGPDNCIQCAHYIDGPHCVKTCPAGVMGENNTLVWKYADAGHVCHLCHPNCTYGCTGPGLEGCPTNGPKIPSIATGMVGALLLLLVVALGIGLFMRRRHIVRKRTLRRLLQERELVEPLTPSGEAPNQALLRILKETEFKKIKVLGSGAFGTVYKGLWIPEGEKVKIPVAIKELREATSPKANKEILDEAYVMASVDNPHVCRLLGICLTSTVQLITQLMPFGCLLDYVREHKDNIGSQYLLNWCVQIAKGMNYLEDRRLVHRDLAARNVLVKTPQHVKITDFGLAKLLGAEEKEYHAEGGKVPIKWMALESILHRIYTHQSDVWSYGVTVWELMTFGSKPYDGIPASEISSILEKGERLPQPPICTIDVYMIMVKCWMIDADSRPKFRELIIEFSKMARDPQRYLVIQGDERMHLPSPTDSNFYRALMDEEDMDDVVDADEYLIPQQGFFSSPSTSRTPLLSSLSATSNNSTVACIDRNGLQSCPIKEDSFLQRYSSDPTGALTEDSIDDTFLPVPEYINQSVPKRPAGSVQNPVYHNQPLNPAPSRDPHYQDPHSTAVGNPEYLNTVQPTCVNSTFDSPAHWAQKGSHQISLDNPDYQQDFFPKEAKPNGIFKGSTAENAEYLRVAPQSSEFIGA
# run_description: EGFR binding affinity (LanthaScreen TR-FRET)
# assay_setup: Kinase Tracer 199, 5 h incubation
pIC50: −log10 of the molar value.

Please review the entries below; each comes with its answer.
In [3]: df
Out[3]:
                                   molecule  readout_value
0  CCOC(=O)C1CCC(n2nc(-c3ccc(CNC(=O)c4ccccc4OC)cc3)c(C(N)=O)c2N)CC1 (stereo not shown)   6.00 to 7.00
1  COc1ccccc1C(=O)NCc1ccc(-c2nn(C3CCCC3)c(N)c2C(N)=O)c(F)c1F   5.00 to 6.00
2  COc1ccc(F)cc1C(=O)NCc1ccc(-c2nn([C@@H]3CCCOC3)c(N)c2C(N)=O)cc1   5.00 to 6.00
3  COc1ccccc1C(=O)NCc1ccc(-c2nn(C3CCCCC3)c(N)c2C(N)=O)cc1   6.00 to 7.00

## Input Short answer please: pIC50, Recombinant EGFR (Homo sapiens, UniProt P00533), entry COc1ccc(F)cc1C(=O)NCc1ccc(-c2nn(C(C3CCOC3)C(F)(F)F)c(N)c2C(N)=O)cc1 (mixture of isomers)
## Output 5.00 to 6.00

## Input Short answer please: pIC50, Recombinant EGFR (Homo sapiens, UniProt P00533), entry COc1ccccc1C(=O)NCc1ccc(-c2nn(C3CCCOC3)c(N)c2C(N)=O)cc1 (stereo not shown)
## Output 6.00 to 7.00

## Input Short answer please: pIC50, Recombinant EGFR (Homo sapiens, UniProt P00533), entry COc1ccc(F)cc1C(=O)NCc1ccc(-c2nn(C(C)C(F)(F)F)c(N)c2C(N)=O)c(F)c1 (stereo not shown)
## Output 5.00 to 6.00

----------
Documented pIC50 across a set of compounds
# target_system: Recombinant BTK^WT kinase (Homo sapiens, UniProt Q06187)
# Construct: purchased Invitrogen
# Sequence (Q06187 whole entry): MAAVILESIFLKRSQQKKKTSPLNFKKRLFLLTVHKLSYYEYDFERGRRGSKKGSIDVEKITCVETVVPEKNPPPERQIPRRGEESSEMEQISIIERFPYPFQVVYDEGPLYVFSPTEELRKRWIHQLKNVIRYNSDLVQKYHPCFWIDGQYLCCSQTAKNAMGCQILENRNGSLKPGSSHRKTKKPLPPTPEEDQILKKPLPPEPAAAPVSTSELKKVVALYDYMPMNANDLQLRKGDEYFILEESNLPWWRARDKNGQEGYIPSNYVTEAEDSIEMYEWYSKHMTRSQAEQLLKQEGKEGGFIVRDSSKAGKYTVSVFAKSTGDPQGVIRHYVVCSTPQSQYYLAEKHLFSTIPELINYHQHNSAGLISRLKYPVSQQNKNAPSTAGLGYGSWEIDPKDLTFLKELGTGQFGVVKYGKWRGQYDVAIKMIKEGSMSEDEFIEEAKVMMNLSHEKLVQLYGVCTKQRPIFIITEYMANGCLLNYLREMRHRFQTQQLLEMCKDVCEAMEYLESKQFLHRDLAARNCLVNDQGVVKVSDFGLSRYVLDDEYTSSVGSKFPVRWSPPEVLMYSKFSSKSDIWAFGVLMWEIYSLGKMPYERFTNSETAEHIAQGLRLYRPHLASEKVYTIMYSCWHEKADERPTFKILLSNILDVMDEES
# run_description: BTK WT binding affinity (LanthaScreen TR-FRET)
# assay_setup: Kinase Tracer 236, 5 h incubation
# Description: BTK^WT binding affinity of each compound tested was determined using a time-resolved fluorescence resonance energy transfer (TR-FRET) methodology. 2.5 nM Recombinant BTK^WT kinase, varying concentrations of inhibitor, 2 nM LanthaScreen™ Eu anti-His Antibody and 15 nM Kinase Tracer 236 was incubated in 1× LanthaScreen™ Kinase Buffer A for 5 h. […] The TR-FRET signal was read on a plate reader with an excitation wavelength of 340 nm and detection wavelengths of 615 and 665 nm. […]
pIC50: −log10 of the molar value.

Please review the entries below; each comes with its answer.
>>> print(df.to_string())
                                   compound                             target_system  readout_value
0  COc1ccccc1C(=O)NCc1ccc(-c2nn(C(C)C(F)F)c(N)c2C(N)=O)cc1 (centres unmarked) [Example 126]  Recombinant BTK^WT kinase (Homo sapiens, UniProt Q06187)   7.00 to 8.00
1  COc1ccc(F)cc1C(=O)NCc1ccc(-c2nn(C(C3CCCC3)C(F)(F)F)c(N)c2C(N)=O)cc1 (centres unmarked) [Example 196]  Recombinant BTK^WT kinase (Homo sapiens, UniProt Q06187)   7.00 to 8.00
2  CCn1nc(-c2ccc(CNC(=O)c3cc(F)ccc3OC)cc2)c(C(N)=O)c1N [Example 195]  Recombinant BTK^WT kinase (Homo sapiens, UniProt Q06187)         > 8.00

## Input Please give the measured pIC50 for this compound: COc1ccccc1C(=O)NCc1ccc(-c2nn([C@@H]3CCC[C@H]3O)c(N)c2C(N)=O)cc1 (relative stereo) [Example 2]
## Output > 8.00

## Input Please give the measured pIC50 for this compound: COc1ccc(F)cc1C(=O)NCc1ccc(-c2nn(C(C)C(F)(F)F)c(N)c2C(N)=O)cc1F (centres unmarked) [Example 177]
## Output > 8.00

## Input Please give the measured pIC50 for this compound: COc1ccccc1C(=O)NCc1ccc(-c2nn(C(C)C3CC3)c(N)c2C(N)=O)cc1 (centres unmarked) [Example 131]
## Output > 8.00

## Input Please give the measured pIC50 for this compound: COc1ccc(F)cc1C(=O)NCc1ccc(-c2nn(C3CCCC3)c(N)c2C(N)=O)cc1F [Example 76]
## Output > 8.00

## Input Please give the measured pIC50 for this compound: COc1ccc(F)cc1C(=O)NCc1ccc(-c2nn(C(C)C(F)(F)F)c(N)c2C(N)=O)cc1 (centres unmarked) [Example 120]
## Output > 8.00

----------
# target_system: Recombinant EGFR (Homo sapiens)
# run_description: EGFR binding affinity (LanthaScreen TR-FRET)
# assay_setup: Kinase Tracer 199, 5 h incubation
experimental_endpoint: IC50

Please review the entries below; each comes with its answer.
>>> print(df.to_string())
                                   compound                    target_system  experimental_endpoint  readout_value
0  COc1ccccc1C(=O)NCc1ccc(-c2nn(C3CCCC3)c(N)c2C(N)=O)c(C)c1  Recombinant EGFR (Homo sapiens)                   IC50        > 10 µM
1  COc1ccccc1C(=O)NCc1ccc(-c2nn(C3CCOCC3)c(N)c2C(N)=O)cc1  Recombinant EGFR (Homo sapiens)                   IC50    0.1 to 1 µM
2  COc1ccccc1C(=O)NCc1ccc(-c2nn(C3CCCC3)c(NC(C)C)c2C(N)=O)cc1  Recombinant EGFR (Homo sapiens)                   IC50     1 to 10 µM
3  COc1ccccc1C(=O)NCc1ccc(-c2nn(C3CNCC3(F)F)c(N)c2C(N)=O)cc1F (centres unmarked)  Recombinant EGFR (Homo sapiens)                   IC50     1 to 10 µM
4  COc1ccccc1C(=O)NCc1ccc(-c2nn(C3CCC(O)CC3)c(N)c2C(N)=O)cc1 (single isomer, unassigned) [Example 34a]  Recombinant EGFR (Homo sapiens)                   IC50    0.1 to 1 µM

## Input Please give the measured IC50 for this compound: COc1ccccc1C(=O)NCc1ccc(-c2nn(C3CCC3)c(N)c2C(N)=O)cc1
## Output 1 to 10 µM

## Input Please give the measured IC50 for this compound: COc1ccc(F)cc1C(=O)NCc1cc(F)c(-c2nn(C3CCOCC3)c(N)c2C(N)=O)cc1F
## Output > 10 µM

## Input Please give the measured IC50 for this compound: COc1ccccc1C(=O)NCc1ccc(-c2nn(C3CCCOC3)c(N)c2C(N)=O)c(F)c1F (centres unmarked)
## Output > 10 µM

From: patent US11826351B2
